Target: CYP2C8 (Homo sapiens, UniProt P10632)
Sequence (P10632 whole entry): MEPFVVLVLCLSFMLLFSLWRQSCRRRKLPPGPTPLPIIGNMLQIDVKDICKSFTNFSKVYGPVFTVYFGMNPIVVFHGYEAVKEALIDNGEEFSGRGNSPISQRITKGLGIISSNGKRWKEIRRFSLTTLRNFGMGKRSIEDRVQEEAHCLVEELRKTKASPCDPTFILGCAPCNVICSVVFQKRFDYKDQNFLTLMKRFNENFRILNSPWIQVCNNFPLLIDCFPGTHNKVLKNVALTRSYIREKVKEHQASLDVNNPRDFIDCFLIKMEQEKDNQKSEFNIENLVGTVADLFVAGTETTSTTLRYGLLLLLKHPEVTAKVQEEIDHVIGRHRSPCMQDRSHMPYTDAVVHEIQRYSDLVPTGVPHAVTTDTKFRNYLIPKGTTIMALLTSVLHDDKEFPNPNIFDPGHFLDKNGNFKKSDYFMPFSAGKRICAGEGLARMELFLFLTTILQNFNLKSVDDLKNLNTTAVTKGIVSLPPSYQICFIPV
Assay: Inhibition of CYP2C8 in human liver microsomes assessed as amodiquine N-deethylation at 100 uM after 15 mins
Assay type: ADME, Microsome
Details: probe amodiquine (N-deethylation)
MEASUREMENT_NAME: inhibition at 0.25 h, 100 µM

Query: Give me measured inhibition at 0.25 h, 100 µM, please, for this compound: C[C@@H](c1ncncc1F)[C@](O)(Cn1cncn1)c1ccc(F)cc1F
Response: < 25%

* * *

Assay: Inhibition of CYP3A using midazolam as probe
Type: ADME
MEASUREMENT_NAME: IC50 (µM)
Report as a plain number; the unit µM is understood.

Query: Give me measured IC50, please, for this molecule: C[C@@H](c1ncncc1F)[C@](O)(Cn1cncn1)c1ccc(F)cc1F
Response: 10.5
